Attribution: patent US6620828B2

- assayedTarget: CDK2/Cyclin A complex (Homo sapiens, UniProt P24941)
- assayDetails: CDK2/Cyclin A assay
- Format: biochemical
- conditionDescription: 1.0 μM; combinatorial library compounds
- Description: CDK2/Cyclin A Construct for Assay: CDK2 was purified using published methodology (Rosenblatt et al., J. Mol. Biol., 230, 1317-1319 (1993)) from insect cells that had been infected with a baculovirus expression vector. […] Cyclin-dependent kinase activity was measured by quantifying the enzyme-catalyzed, time-dependent incorporation of radioactive phosphate from [^32P]ATP into a recombinant fragment of the retinoblastoma protein. […]
assayMetric: inhibition at 1 µM (%)
Field format: number, assumed %, no unit text.

Known results for molecules:
{"molecule": "CCOC(=O)c1cc(-c2csc(-c3sc(Nc4ccc(S(N)(=O)=O)cc4)nc3N)n2)on1", "obsValue": 29.8}
{"molecule": "COc1cc(OC)c(-c2csc(-c3sc(Nc4ccc(C(C)C)cc4)nc3N)n2)c(O)c1Cl", "obsValue": 31.8}
{"molecule": "CCCCCc1ccc(-c2csc(-c3sc(Nc4ccc(C(C)C)cc4)nc3N)n2)cc1", "obsValue": 3.6}
{"molecule": "COc1ccccc1-c1csc(-c2sc(Nc3ccc(N(C)C)cc3)nc2N)n1", "obsValue": -6.4}
{"molecule": "CC(C)c1ccc(Nc2nc(N)c(-c3nc(-c4ccc(F)c(F)c4)cs3)s2)cc1", "obsValue": 21.2}

Entry `CC(C)c1ccc(Nc2nc(N)c(-c3nc(-c4ccc(OC(=O)c5ccccc5)cc4)cs3)s2)cc1` under CDK2/Cyclin A complex (Homo sapiens, UniProt P24941) had inhibition at 1 µM of 73

Entry `CN(C)c1ccc(Nc2nc(N)c(-c3nc(-c4cc(-c5ccc(Cl)c(Cl)c5)no4)cs3)s2)cc1` under CDK2/Cyclin A complex (Homo sapiens, UniProt P24941) had inhibition at 1 µM of 12.6

###

- assayedTarget: CDK2/Cyclin A complex (Homo sapiens, UniProt P24941)
- assayDetails: CDK2/Cyclin A assay
- Format: biochemical
- conditionDescription: Table 2
assayMetric: Ki (nM)
Field format: number, assumed nM, no unit text.

{"smilesEntry": "Nc1nc(Nc2ccc(S(N)(=O)=O)cc2)sc1-c1nc(O)c(-c2ccc(O)cc2)s1", "measurementUnit": "nM", "obsValue": 10400}
{"smilesEntry": "CN(C)CCNS(=O)(=O)c1ccc(Nc2nc(N)c(-c3nc(C(=O)c4ccccc4)cs3)s2)cc1", "measurementUnit": "nM", "obsValue": 29000}
{"smilesEntry": "COc1ccc(/C=C/c2csc(-c3sc(Nc4ccc(S(N)(=O)=O)cc4)nc3N)n2)cc1O", "measurementUnit": "nM", "obsValue": 150}
{"smilesEntry": "Nc1csc(-c2sc(Nc3ccc(S(N)(=O)=O)cc3)nc2N)n1", "measurementUnit": "nM", "obsValue": 200}
{"smilesEntry": "Nc1nc(Nc2ccc(S(N)(=O)=O)cc2)sc1-c1nc(O)c(-c2ccccc2O)s1", "measurementUnit": "nM", "obsValue": 2600}

Data point: `CN(C)c1ccc(Nc2nc(N)c(-c3nc(O)c(-c4ccccc4O)s3)s2)cc1` ; Ki = 8800

Data point: `Nc1nc(Nc2ccc(S(N)(=O)=O)cc2)sc1-c1nc(-c2ccc(O)cc2)cs1` ; Ki = 800

Data point: `Cc1nc(-c2sc(Nc3ccc(S(N)(=O)=O)cc3)nc2N)sc1Cc1ccc(F)cc1` ; Ki = 2700

Data point: `COc1cc(Nc2nc(N)c(-c3nc(-c4cccc(O)c4)no3)s2)cc(OC)c1OC` ; Ki = 620

Data point: `C=CCOc1cc(O)cc(-c2csc(-c3sc(Nc4ccc(S(N)(=O)=O)cc4)nc3N)n2)c1` ; Ki = 530

Data point: `Cc1sc(-c2sc(Nc3ccc(S(N)(=O)=O)cc3)nc2N)nc1-c1ccc(F)cc1` ; Ki = 3100

Data point: `COc1cc(Nc2nc(N)c(-c3nc(-c4ccc(O)cc4)cs3)s2)cc(OC)c1OC` ; Ki = 13400

Data point: `Nc1nc(Nc2ccc(S(N)(=O)=O)cc2)sc1-c1nc(/C=C/C=C/c2ccccc2)cs1` ; Ki = 1100

Data point: `Nc1nc(Nc2ccc(S(N)(=O)=O)cc2)sc1-c1nc(-c2cc(-c3ccc(Cl)cc3Cl)co2)cs1` ; Ki = 13000

Data point: `CNc1nc(N)c(-c2nc(-c3cccc(O)c3)cs2)s1` ; Ki = 4800

Data point: `CCCNc1nc(N)c(-c2nc(-c3cccc(O)c3)cs2)s1` ; Ki = 6400

Data point: `Nc1nc(Nc2ccc(S(N)(=O)=O)cc2)sc1-c1nc(/C=C/c2ccccc2)cs1` ; Ki = 2000

Data point: `Nc1nc(Nc2ccc(S(N)(=O)=O)cc2)sc1-c1nccn1Cc1ccc(Cl)cc1` ; Ki = 18000

###

Each record here notes measured inhibition at 1 µM.
- assayedTarget: CDK2/Cyclin A complex (Homo sapiens, UniProt P24941)
- assayDetails: CDK2/Cyclin A assay
- Assay type: biochemical
- conditionDescription: 1.0 μM; combinatorial library compounds
Field format: number, assumed %, no unit text.

Known results for compounds:
{"smilesEntry": "COc1ccc2nc(-c3ccccc3)c(-c3csc(-c4sc(Nc5ccc(S(N)(=O)=O)cc5)nc4N)n3)cc2c1", "obsValue": 61.4}
{"smilesEntry": "CCc1cc2c(cc1-c1csc(-c3sc(Nc4ccc(S(N)(=O)=O)cc4)nc3N)n1)C(C)(C)CCC2(C)C", "obsValue": 14.1}
{"smilesEntry": "Cc1c(C)c(C)c(-c2csc(-c3sc(Nc4ccc(N(C)C)cc4)nc3N)n2)c(C)c1C", "obsValue": 33.9}

Continue with the compound presented below.
Data point: `Cc1c(C)c(C)c(-c2csc(-c3sc(Nc4ccc(C(C)C)cc4)nc3N)n2)c(C)c1C` ; inhibition at 1 µM = 39.9

###

Each record here notes measured inhibition at 0.01 µM.
- Tested on: human umbilical vein endothelial cells (HUVEC)
- assayDetails: HUVEC proliferation assay
- Format: cell-based
- conditionDescription: Homo sapiens, HUVEC, table following Table II (untitled); 10 nM; crude combinatorial library; read-out: % inhibition @ 10 nM
Field format: number, assumed %, no unit text.

Known results for compounds:
{"compound": "COc1cc(Nc2nc(N)c(-c3nc(-c4cc(NC(=O)C[C@H](C)c5ccccc5)ccc4C)no3)s2)cc(OC)c1OC", "obsValue": 24}
{"compound": "COc1cc(Nc2nc(N)c(-c3nc(-c4cc(NC(=O)[C@H](O)C(C)(C)C)ccc4C)no3)s2)cc(OC)c1OC", "obsValue": -11}
{"compound": "COc1cc(Nc2nc(N)c(-c3nc(-c4cc(NC(=O)c5cccc6[nH]ccc56)ccc4C)no3)s2)cc(OC)c1OC", "obsValue": 72}
{"compound": "COc1cc(Nc2nc(N)c(-c3nc(-c4cc(NC(=O)C5CC5C)ccc4C)no3)s2)cc(OC)c1OC (stereo not drawn)", "obsValue": 6}
{"compound": "COc1cc(Nc2nc(N)c(-c3nc(-c4cc(NC(=O)c5ccc(C(C)(C)C)o5)ccc4C)no3)s2)cc(OC)c1OC", "obsValue": 48}

Data point: COc1cc(Nc2nc(N)c(-c3nc(-c4cc(NC(=O)C(O)c5ccccc5)ccc4C)no3)s2)cc(OC)c1OC (stereo not drawn) ; inhibition at 0.01 µM = 40

Data point: `COc1ccc(C#N)c(C(=O)Nc2ccc(C)c(-c3noc(-c4sc(Nc5cc(OC)c(OC)c(OC)c5)nc4N)n3)c2)c1` ; inhibition at 0.01 µM = 1

Data point: `COc1cc(Nc2nc(N)c(-c3nc(-c4cc(NC(=O)C(=O)C5=CCCCC5)ccc4C)no3)s2)cc(OC)c1OC` ; inhibition at 0.01 µM = 11

Data point: `COc1ccccc1/C=C/C(=O)Nc1ccc(C)c(-c2noc(-c3sc(Nc4cc(OC)c(OC)c(OC)c4)nc3N)n2)c1` ; inhibition at 0.01 µM = 31

Data point: `COc1cc(Nc2nc(N)c(-c3nc(-c4cc(NC(=O)[C@@H](OC)c5ccccc5)ccc4C)no3)s2)cc(OC)c1OC` ; inhibition at 0.01 µM = 63

###

- assayedTarget: FL-CHK1 (Homo sapiens)
- Construct: C-terminally His-tagged full-length human CHK1 (FL-CHK1); 6xHis (C); made in house; host or cells: baculovirus/insect cells
- Sequence (O14757 whole entry): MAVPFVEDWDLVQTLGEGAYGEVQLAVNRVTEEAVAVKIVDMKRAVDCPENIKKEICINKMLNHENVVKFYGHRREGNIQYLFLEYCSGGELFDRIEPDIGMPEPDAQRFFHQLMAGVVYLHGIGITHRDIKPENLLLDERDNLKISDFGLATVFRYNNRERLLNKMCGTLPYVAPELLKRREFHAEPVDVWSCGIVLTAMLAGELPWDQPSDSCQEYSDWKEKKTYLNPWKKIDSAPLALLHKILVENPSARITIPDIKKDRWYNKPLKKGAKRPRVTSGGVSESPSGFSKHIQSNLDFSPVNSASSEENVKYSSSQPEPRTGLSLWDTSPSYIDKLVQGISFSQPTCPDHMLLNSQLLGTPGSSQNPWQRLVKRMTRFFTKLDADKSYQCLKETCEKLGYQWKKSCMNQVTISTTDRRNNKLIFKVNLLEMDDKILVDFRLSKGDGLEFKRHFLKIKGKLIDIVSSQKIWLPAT
- assayDetails: CHK1 assay
- Format: biochemical
- conditionDescription: 20 μM; combinatorial library compounds
Values of inhibition at 20 µM greater than or equal to 20% map to label 1; values below map to label 0.

{"compound": "CC(C)c1ccc(Nc2nc(N)c(-c3nc(-c4ccc(Cl)cc4Cl)cs3)s2)cc1", "categoryLabel": "label 1"}
{"compound": "CC(C)c1ccc(Nc2nc(N)c(-c3nc(-c4cc(C(=O)C(Cl)(Cl)Cl)n(C)c4)cs3)s2)cc1", "categoryLabel": "label 0"}
{"compound": "Nc1nc(Nc2ccc(S(N)(=O)=O)cc2)sc1-c1nc(-c2ccccc2[N+](=O)[O-])cs1", "categoryLabel": "label 1"}
{"compound": "Cc1c(-c2csc(-c3sc(Nc4ccc(N(C)C)cc4)nc3N)n2)sc2ccc(Cl)cc12 [drawing 550]", "categoryLabel": "label 1"}

Shifting focus to the compound that follows.
Query: Decide: is the reported value of inhibition at 20 µM for `CC(=O)Oc1ccccc1-c1csc(-c2sc(Nc3ccc(N(C)C)cc3)nc2N)n1` equal to or greater than 20%?
Response: label 0
